Vd for assorted molecules
Test: Plasma pharmacokinetics
Assay type: in vivo, male BALB/c mice
Conditions: male, BALB/c, mouse, in vivo, iv, 10 mg/kg; Route i.v.; read-out: Vss
Numbered stars: 1 amine (or outer) side, 2 acyl side, 3 side chain; on linkers, the order of the positions; unused ones are H or OH. Bridge positions count the residues as written; N and C are the ends. Square brackets hold non-standard residues; d marks the D form. Peptide text beside a SMILES is read from it. * marks the point of attachment. Piperazine(2S-CO,4-Me) = CN1CCN[C@H](C(=O)O)C1; Morpholine(3S-CO) = O=C(O)[C@@H]1COCCN1; Phe(3-Me) = Cc1cccc(C[C@H](N)C(=O)O)c1; NH(4-Cl-2-F-phenyl) = Fc1cc(Cl)ccc1N*; Pro(4R-Me) = C[C@H]1CN[C@H](C(=O)O)C1; Hyp = O=C(O)[C@@H]1C[C@@H](O)CN1; NH(4-Et-phenyl) = CCc1ccc(N*)cc1; aThr = C[C@H](O)[C@H](N)C(=O)O; Pip = O=C(O)[C@@H]1CCCCN1; CO = O=C([*:1])[*:2]
Give just the number in L/kg; leave the unit off.

Use the examples below as a reference point.
- CCc1ccc(NC(=O)N[C@@H](Cc2cccc(C)c2)C(=O)N[C@@H]2C(=O)N3C[C@H](O)C[C@H]3C(=O)N3CCOC[C@H]3C(=O)N[C@@H](C)C(=O)N3C[C@H](C)C[C@H]3C(=O)O[C@H]2C)cc1 [Compound 24] ({NH(4-Et-phenyl)-CO}-[Phe(3-Me)][aThr][Hyp][Morpholine(3S-CO)]A[Pro(4R-Me)]; ester 2-C): 0.51
- Cc1cccc(C[C@H](NC(=O)Nc2ccc(Cl)cc2F)C(=O)N[C@@H]2C(=O)N3C[C@H](O)C[C@H]3C(=O)N3CCN(C)C[C@H]3C(=O)N[C@@H](C)C(=O)N3C[C@H](C)C[C@H]3C(=O)O[C@H]2C)c1 [Compound 31] ({NH(4-Cl-2-F-phenyl)-CO}-[Phe(3-Me)][aThr][Hyp][Piperazine(2S-CO,4-Me)]A[Pro(4R-Me)]; ester 2-C): 0.63

Let us examine a further case.
Qu. Supply measured Vd of Cc1cccc(C[C@H](NC(=O)Nc2ccc(Cl)cc2F)C(=O)N[C@@H]2C(=O)N3C[C@H](O)C[C@H]3C(=O)N3CCCC[C@H]3C(=O)N[C@@H](C)C(=O)N3C[C@H](C)C[C@H]3C(=O)O[C@H]2C)c1 [Compound 6] ({NH(4-Cl-2-F-phenyl)-CO}-[Phe(3-Me)][aThr][Hyp][Pip]A[Pro(4R-Me)]; ester 2-C) in your reply.
Ans. 1.02
